- tested on: mutated human GLP-2R (Homo sapiens, UniProt O95838, E512D/G511A/L513V)
- Construct: expressed in transfected cells; host or cells: HEK 293E (clonal line, transfected)
- Sequence (O95838 whole entry G511A/E512D/L513V): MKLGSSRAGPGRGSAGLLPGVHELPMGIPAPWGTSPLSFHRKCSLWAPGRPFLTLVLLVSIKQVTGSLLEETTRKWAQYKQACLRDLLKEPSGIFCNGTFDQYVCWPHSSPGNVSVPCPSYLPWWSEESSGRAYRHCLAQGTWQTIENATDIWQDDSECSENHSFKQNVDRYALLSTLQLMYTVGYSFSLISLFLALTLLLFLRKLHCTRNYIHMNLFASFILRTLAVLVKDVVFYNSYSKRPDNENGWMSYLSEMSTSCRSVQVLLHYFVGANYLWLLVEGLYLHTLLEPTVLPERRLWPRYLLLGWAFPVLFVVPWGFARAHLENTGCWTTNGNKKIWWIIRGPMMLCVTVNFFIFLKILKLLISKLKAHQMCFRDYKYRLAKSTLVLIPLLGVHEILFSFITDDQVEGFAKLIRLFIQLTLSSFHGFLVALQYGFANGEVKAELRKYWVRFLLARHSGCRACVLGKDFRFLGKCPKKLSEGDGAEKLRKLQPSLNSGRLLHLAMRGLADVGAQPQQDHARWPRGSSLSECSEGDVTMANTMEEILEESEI
- experiment notes: cAMP expression assay
- Assay type: cell-based
- recorded conditions: Table 5, peptides 0.01 nM to 1.0 uM, 30-minute incubation at 37° C.; read-out: cAMP in Vitro EC50 values
Ends that are not written are not given here.
Exercise: state measured pEC50 for each of the sequences provided.
Note on pEC50: it is the negative log10 of concentration, concentration in mol/L.

Input: Given the entry HGDGSFSDEMNTILDNQAARDFINWLIQTKITD [SEQ ID NO: 54, GLP-2(A2G, L17Q)] , report its measured pEC50.
Output: 8.28

Input: Given the entry HGDGSFSDEMNTILDGQAARDFINWLIQTKITD [SEQ ID NO: 55, GLP-2(A2G, N16G, L17Q)] , report its measured pEC50.
Output: 8.46
